Entries and their measured T/C follow.
# Tested on: CD2F1 mice, L1210 leukemia ip, survival T/C
# assay.text: NCI In Vivo Anticancer Drug Screen. Data for tumor model L1210 Leukemia (intraperitoneal) in CD2F1 (CDF1) mice
# experimental.setup: endpoint: mean survival time; dose: 12.5 mg/kg/injection; schedule: Q01DX009 (ip); vehicle: saline; higher = longer survival
Toxic doses and inconclusive results are not listed.

Some solved cases for reference:
- compound: "Clc1nc2n[nH]nc2nc1Cl"
  property: "T/C"
  measurement: "95 % of control"
- compound: "C1CSC(=[N+]2CC[N+](=C3SCCS3)CC2)S1"
  property: "T/C"
  measurement: "101 % of control"
- compound: "CCOC(=O)C(N)CSC(=O)NC (configuration not stated)"
  property: "T/C"
  measurement: "95 % of control"
- compound: "COc1cc(NCC(C)(O)CN2CCCC(C)C2C)c2ncccc2c1 (configuration not stated)"
  property: "T/C"
  measurement: "101 % of control"
- compound: "CC1(C)N=C(N)N=C(N)N1c1ccc(OCC(=O)N2CCOCC2)c(Cl)c1"
  property: "T/C"
  measurement: "97 % of control"
- compound: "CCCCCCCCP(=O)(N1CC1C)N1CC1C (configuration not stated)"
  property: "T/C"
  measurement: "94 % of control"

Next, consider the following compound.
Response field T/C (CD2F1 mice, L1210 leukemia ip, survival T/C) for item O=S(=O)(O)c1ccc(-c2ccc(S(=O)(=O)O)cc2)cc1 : 104 % of control
